These measurements were taken from ChEMBL document CHEMBL1201862.

Parameter EC50: see the listing below.
Experimental Protocol: Luminescence Cell-Based Dose Response HTS to Identify Inhibitors of 5'UTR Stem-Loop Driven Prion Protein mRNA Translation in H4 Neuroglioblastoma Cells. [Related pubchem assays: 1827 (Project Summary), 1813 (Primary HTS)]
Type: functional
Activity calls are given as the source filed them.

Consider the reported EC50 for these molecules:
Cc1cc(C(=O)COC(=O)c2ccccc2O)c(C)n1Cc1cccs1 : < 0.1 µM (active)
Cc1ccc(S(=O)(=O)c2cc3c(=O)n4cccc(C)c4nc3n(Cc3ccncc3)c2=N)cc1 : > 120 µM (not active)

INPUT: Can you share its EC50? I mean this molecule: O=C(O)c1ccccc1C(=O)Nc1ccc(Oc2cccc3ccccc23)cc1
OUTPUT: 12.7 µM (active)

###

Target Desc: RNA-binding protein pos-1 (Caenorhabditis elegans, UniProt G5EF15)
Sequence (G5EF15 whole entry, the tested form may be a part): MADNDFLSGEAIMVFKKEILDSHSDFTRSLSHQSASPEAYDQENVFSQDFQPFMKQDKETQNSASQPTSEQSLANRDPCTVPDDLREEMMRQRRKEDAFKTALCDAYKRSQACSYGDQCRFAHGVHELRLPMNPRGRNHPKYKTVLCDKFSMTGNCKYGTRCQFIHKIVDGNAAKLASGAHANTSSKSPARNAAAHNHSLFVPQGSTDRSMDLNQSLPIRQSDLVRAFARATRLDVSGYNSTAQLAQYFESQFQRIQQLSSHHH
Experimental Protocol: disruptors of C. elegans POS-1 RNA interaction – biochemical, fluorescence polarization, dose response (AID 1964);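 further: purified POS-1 fused to maltose binding protein made in E. coli; potency of compounds blocking POS-1 binding to fluorescent RNA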
Active and inactive are the calls of the source.
Parameter EC50: see the listing below.

Consider the reported EC50 for these compounds:
CCCCNC(=S)NNC(=O)c1cc(C)on1 : > 300 µM (not active)
c1ccc(-c2nnc(-c3ccccn3)nn2)nc1 : > 300 µM (not active)
COC(=O)C1=COC(C)C2CN3CCc4c([nH]c5cc(OC)c(OC)cc45)C3CC12 (stereo not drawn) : 15.5 µM (active)
N#Cc1c(-c2ccccc2Cl)c2c([nH]c1=O)-c1ccccc1OC2 : > 300 µM (inconclusive)
CCCn1nc(C(=O)Nc2ccc(S(=O)(=O)Nc3nccs3)cc2)c2ccccc2c1=O : > 150 µM (not active)
Cc1cc(/C=C2\C(=O)NC(=O)N(c3ccc(Cl)cc3)C2=O)c(C)n1-c1cccc(C(=O)O)c1 : > 300 µM (not active)

INPUT: Can you share its EC50? I mean this compound: COc1ccc(C2=CC3=C(Br)C(=O)C(C)(OC(=O)c4ccco4)C(=O)C3=CO2)cc1 (stereo not drawn)
OUTPUT: > 300 µM (not active)

INPUT: Thanks! And Cc1ccn2cc(-c3ccc(O)c(O)c3)nc2c1 ?
OUTPUT: 38 µM (active)

INPUT: Thanks! And CN(C)c1cc(-c2ccc([N+](=O)[O-])cc2)oc(=O)c1Cl ?
OUTPUT: 49.5 µM (active)

INPUT: Thanks! And Cc1cc(/C=c2\sc3nc4ccccc4n3c2=O)c(C)n1-c1ccc(C(=O)O)cc1 ?
OUTPUT: > 300 µM (not active)

INPUT: Thanks! And O=C/C(=C\Nc1ccccn1)c1nc2cc(Cl)ccc2o1 ?
OUTPUT: 67.7 µM (active)

INPUT: Thanks! And CN1C(=O)C(=CNc2ccc(N3CCOCC3)cc2)C(=O)N(C)C1=S ?
OUTPUT: > 300 µM (not active)

INPUT: Thanks! And O=S(=O)(Nc1cc(Sc2cccc3cccnc23)c(O)c2ccccc12)c1ccc(F)cc1 ?
OUTPUT: > 300 µM (not active)

###

Parameter IC50: see the listing below.
Target Desc: UniProt P03070
Sequence (P03070 whole entry): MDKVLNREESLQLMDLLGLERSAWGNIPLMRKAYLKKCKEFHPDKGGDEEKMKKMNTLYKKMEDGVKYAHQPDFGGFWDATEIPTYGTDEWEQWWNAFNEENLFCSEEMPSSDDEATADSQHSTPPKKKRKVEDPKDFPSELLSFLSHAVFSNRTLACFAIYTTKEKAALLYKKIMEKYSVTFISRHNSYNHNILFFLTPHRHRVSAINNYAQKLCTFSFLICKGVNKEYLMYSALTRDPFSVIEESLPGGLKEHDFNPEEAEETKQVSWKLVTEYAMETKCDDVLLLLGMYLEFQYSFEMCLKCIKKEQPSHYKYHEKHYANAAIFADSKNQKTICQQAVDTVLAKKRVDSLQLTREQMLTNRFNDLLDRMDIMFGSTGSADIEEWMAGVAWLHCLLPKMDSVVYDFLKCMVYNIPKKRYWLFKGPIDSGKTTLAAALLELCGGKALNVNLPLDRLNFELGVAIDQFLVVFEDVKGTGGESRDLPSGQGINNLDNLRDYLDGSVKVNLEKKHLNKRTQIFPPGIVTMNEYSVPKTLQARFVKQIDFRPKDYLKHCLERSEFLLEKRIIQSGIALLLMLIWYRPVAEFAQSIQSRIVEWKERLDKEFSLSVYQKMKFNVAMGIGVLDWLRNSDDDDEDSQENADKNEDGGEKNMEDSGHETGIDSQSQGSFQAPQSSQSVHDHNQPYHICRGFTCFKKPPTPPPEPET
Format: functional, Betapolyomavirus macacae
Active and inactive are the calls of the source.

Consider the reported IC50 for these molecules:
Oc1ccc(/N=C/c2cc(Br)c(N3CCOCC3)o2)cc1 : 21.7 µM (active)
Cc1cs/c(=N\N=C\c2ccc(O)cc2)n1Cc1ccco1 : 25.5 µM (active)
O=C(C[n+]1ccccc1)NN=Cc1ccc(O)cc1 : 11.3 µM (active)
Cc1cc(C)c2c(=O)n(CC(=O)Nc3cccc(Cl)c3C)sc2n1 : 9.03 µM (active)

INPUT: Can you share its IC50? I mean this molecule: CCn1c(SCC(=O)c2ccc(O)c(O)c2)nnc1-c1ccc(C)cc1
OUTPUT: 10.4 µM (active)

INPUT: Thanks! And CN(C)c1ccc(-c2nc3cnccn3c2Nc2ccc3c(c2)OCCO3)cc1 ?
OUTPUT: 12 µM (active)

INPUT: Thanks! And Cc1ccn2cc(-c3ccc(O)c(O)c3)nc2c1 ?
OUTPUT: 12.9 µM (active)

INPUT: Thanks! And COc1cc(/C=N/NS(=O)(=O)c2ccc(C)c([N+](=O)[O-])c2)ccc1O ?
OUTPUT: 7.27 µM (active)

INPUT: Thanks! And Cc1c(N=C2C=C(Br)C(=O)C(Br)=C2)c(=O)n(-c2ccccc2)n1C ?
OUTPUT: 27 µM (active)

INPUT: Thanks! And Cc1c(C(=O)Oc2ccc(-c3cnc4ccccc4n3)cc2)cccc1[N+](=O)[O-] ?
OUTPUT: 58.2 µM (active)

INPUT: Thanks! And O=C1NC(=O)N(c2cccc(Cl)c2)C(=O)/C1=C\c1ccc(Sc2nc3ccccc3[nH]2)o1 ?
OUTPUT: 66.2 µM (active)

INPUT: Thanks! And Nc1ccc(-c2nc3ccc(N)c(Cl)c3[nH]2)cc1 ?
OUTPUT: 7.64 µM (active)

###

Target Desc: UniProtKB Q06710
Sequence (Q06710 whole entry): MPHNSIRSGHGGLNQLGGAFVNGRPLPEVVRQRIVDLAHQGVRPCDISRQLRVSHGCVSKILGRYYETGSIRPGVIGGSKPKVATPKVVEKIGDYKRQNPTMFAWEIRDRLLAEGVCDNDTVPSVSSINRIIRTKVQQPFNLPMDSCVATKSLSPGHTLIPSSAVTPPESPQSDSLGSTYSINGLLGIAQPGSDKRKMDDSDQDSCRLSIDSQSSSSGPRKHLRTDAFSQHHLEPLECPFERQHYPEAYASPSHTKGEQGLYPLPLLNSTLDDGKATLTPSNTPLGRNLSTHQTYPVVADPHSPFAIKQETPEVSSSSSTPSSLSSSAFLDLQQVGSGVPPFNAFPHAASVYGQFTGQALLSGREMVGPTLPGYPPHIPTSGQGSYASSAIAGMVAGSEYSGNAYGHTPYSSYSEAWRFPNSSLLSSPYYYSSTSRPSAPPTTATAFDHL
Experimental Protocol: PAX8 transcriptional activity inhibition in RMG-I – RMG-I cells, luciferase, cherry-pick, dose response (AID 687027);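 further: luciferase reporter driven by Pax8 target thyroperoxidase promoter measured by SteadyGlo luminescence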
Format: functional, cell-based
Active and inactive are the calls of the source.
Quantity Measured: AC50

Consider the reported AC50 for these compounds:
CN1c2ccc(-c3cccc(F)c3)cc2[C@@H]2[C@@H](CCN2C(=O)Cc2ccccc2)[C@@H]1CO : 10.2 µM (active)
C[C@@H]1CN([C@@H](C)CO)C(=O)c2cc(NS(=O)(=O)c3ccc(F)cc3)ccc2O[C@@H]1CN(C)Cc1ccc(C(F)(F)F)cc1 : 15.3 µM (active)
Cc1ccc(S(=O)(=O)N2CCCCC2)cc1NC(=O)Cn1ncc(Cl)c(Cl)c1=O : 4.3 µM (active)
Cc1ccc(NC(=O)CN(C)C(=O)Cn2ncc(Cl)c(Cl)c2=O)cc1 : 3.57 µM (active)
Cc1noc(C)c1S(=O)(=O)Nc1ccc2c(c1)C(=O)N([C@H](C)CO)C[C@@H](C)[C@H](CN(C)C(=O)Nc1ccc(C(F)(F)F)cc1)OCCCC[C@@H](C)O2 : 7.41 µM (active)
CC1CCN(c2ccc(-c3cccc(NC(=O)C(F)(F)F)c3)nn2)CC1 : 3.37 µM (active)

INPUT: Can you share its AC50? I mean this compound: C[C@H](O)C#Cc1cnc2c(c1)C(=O)N([C@H](C)CO)C[C@@H](C)[C@@H](CN(C)Cc1ccc(-c3ccccc3)cc1)O2
OUTPUT: 1.66 µM (active)

INPUT: Thanks! And Oc1nc2ccccc2n1C1CCN(C(c2cccs2)c2nnnn2-c2ccc3c(c2)OCCO3)CC1 (stereo not drawn) ?
OUTPUT: 1.78 µM (active)

###

Parameter EC50: see the listing below.
Experimental Protocol: luciferase reporter signal suppression in cells – H4 neuroglioma cells, luminescence, dose response (AID 1990)
Format: functional, cell-based
The source made the active and inactive calls.

INPUT: Can you share its EC50? I mean this molecule: CCCOc1ccc(C(=O)NNC(=S)NC(C)=O)cc1
OUTPUT: 14.2 µM (active)

###

Target Desc: Heat shock factor protein 1 (Mus musculus)
Sequence (P38532 whole entry): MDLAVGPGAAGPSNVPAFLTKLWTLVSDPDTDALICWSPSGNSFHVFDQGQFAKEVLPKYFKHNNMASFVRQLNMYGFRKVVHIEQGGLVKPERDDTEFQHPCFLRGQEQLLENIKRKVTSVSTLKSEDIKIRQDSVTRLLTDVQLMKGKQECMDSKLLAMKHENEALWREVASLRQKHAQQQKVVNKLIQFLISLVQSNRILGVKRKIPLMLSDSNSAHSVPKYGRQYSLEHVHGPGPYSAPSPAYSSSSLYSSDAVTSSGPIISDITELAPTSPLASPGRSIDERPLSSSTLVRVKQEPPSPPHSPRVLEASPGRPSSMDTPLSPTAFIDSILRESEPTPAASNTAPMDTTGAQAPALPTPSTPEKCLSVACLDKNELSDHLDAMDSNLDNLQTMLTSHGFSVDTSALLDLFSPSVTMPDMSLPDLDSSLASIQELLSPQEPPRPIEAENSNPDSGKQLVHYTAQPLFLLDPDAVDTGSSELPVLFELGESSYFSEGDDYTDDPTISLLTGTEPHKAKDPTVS
Experimental Protocol: decrease of HSF1-responsive luciferase luminescence – cell-based, NIH3T3, dose retest, confirmation (AID 2382);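 further: NIH3T3 fibroblasts with HSF1-driven luciferase reporter stressed by proteasome inhibitor MG132; luminescence from HSF1-driven luciferase expression after 8 hours of MG132 stress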
Assay type: functional
Activity calls are given as the source filed them.
Quantity Measured: EC50

CC1CCN(c2ccc(-c3cccc(NC(=O)C(F)(F)F)c3)nn2)CC1 : < 0.16 µM (active)
C/N=c1\scc(-c2cccs2)n1/N=C/c1ccccc1O : < 0.16 µM (active)
CCOc1ccc(C2N(c3ccc(F)cc3)C(=O)C3CCCN32)cc1OC (stereo unspecified) : > 195 µM (not active)
O=C(O)COc1ccccc1/C=N/NC(=O)c1ccc2c(c1)OCCO2 : > 195 µM (not active)

INPUT: Can you share its EC50? I mean this molecule: Cc1c(C(=O)C(=O)NCc2cccs2)c2ccccc2n1C
OUTPUT: > 195 µM (not active)

INPUT: Thanks! And CC(=O)c1c(N2CCN(CCO)CC2)nc(=S)n(-c2ccccc2)c1C ?
OUTPUT: > 195 µM (not active)

INPUT: Thanks! And CCN(CC)C(=O)c1cc2cc([N+](=O)[O-])ccc2s1 ?
OUTPUT: > 195 µM (not active)

INPUT: Thanks! And CCCCN(C(=O)c1ccc([N+](=O)[O-])s1)c1c(N)n(CCCC)c(=O)[nH]c1=O ?
OUTPUT: > 195 µM (not active)

INPUT: Thanks! And CCO[C@@H]1OC(C(=O)NCc2ccccc2)=C[C@H](c2ccc3c(c2)OCO3)[C@H]1CCCO ?
OUTPUT: > 195 µM (not active)

INPUT: Thanks! And OCc1nn2c(c1Br)NC(c1ccccc1)CC2C(F)(F)F (stereo unspecified) ?
OUTPUT: > 195 µM (not active)

INPUT: Thanks! And Cc1cc(C(=O)COC(=O)c2ccccc2O)c(C)n1Cc1cccs1 ?
OUTPUT: < 0.16 µM (active)
